B1: NEK8 (parent)
chain: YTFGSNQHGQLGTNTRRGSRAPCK

# Variants of: B1
# ASSAY_DETAILS: protein stability index of a GFP-peptide fusion (GPS, HEK-293T) (PSI 1-6); higher = more stable;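 further: lentivirally expressed fusions sorted by FACS into six bins by GFP to DsRed ratio, PSI derived from sequencing read proportions per bin multiplied by bin number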
# CONDITION: c terminus: a fixed tail appended
Everything with protein stability index lower than 4 is no (0); everything else, including exactly 4, is yes (1).

Example cases with answers are listed next.
INSERT INTO assay_data (record_sequence, answer_label) VALUES
  ('YTFGSNQHGQLGTNLRRGSRAPCK [T15L]', 'no (0)'),
  ('YTFGSNQHGQLGTNTRRGSRAPCN [K24N]', 'no (0)'),
  ('YTFGSNMHGQLGTNTRRGSRAPCK [Q7M]', 'no (0)'),
  ('YTFGSNQHGQLGTNTRRGSRAGCK [P22G]', 'yes (1)');

Request: Identify whether the reported protein stability index of the following variant is 4 or greater: YTFGSNQHGQTGTNTRRGSRAPCK [L11T]
Response: yes (1)

Request: Same lookup for YTFGNNQHGQLGTNTRRGSRAPCK [S5N] , please.
Response: yes (1)

Request: Next: YTFGSNQHTQLGTNTRRGSRAPCK [G9T]
Response: no (0)

Request: Lookup YTFGSNQHGQLGTNTRRGFRAPCK [S19F]
Response: no (0)

Request: Okay, and YTFGSNQHGILGTNTRRGSRAPCK [Q10I] ?
Response: no (0)
